# EXPERIMENTAL SYSTEM: T1, 4H3175-bA
# T1 chain: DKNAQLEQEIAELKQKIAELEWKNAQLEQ
# RUN DESCRIPTION: two-hybrid library CCNG1;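 further: natural log of median RNA to DNA barcode read ratio; higher means stronger binding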
Please note: interaction score exactly at -0.9 is False. Only values below -0.9 get True.

Field: example entries. Status: answers known.
DKNAQLEQEIAELKQKIAELEWKNAQLEQ [4H3175-bA]: False
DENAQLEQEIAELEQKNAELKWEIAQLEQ [4H1081-bA]: True
DENAQLEQKIAELKQEIAELEWENAQLKQ [4H1348-bA]: False
DENAQLKQKNAELKQEIAELEWEIAQLEQ [4H1985-bA]: True
DENAQLKQKIAELKQKIAELKWENAQLEQ [4H1899-bA]: True

Input line: I'd appreciate it if you could check whether DENAQLKQENAELEQKIAELKWKIAQLKQ [4H1710-bA] has interaction score smaller than -0.9.
Output line: False

Input line: State whether -0.9 exceeds interaction score recorded for DKNAQLEQEIAELKQENAELKWEIAQLKQ [4H3162-bA] .
Output line: False

Input line: interaction score under -0.9? Item: DENAQLKQEIAELEQEIAELEWKNAQLKQ [4H1544-bA]
Output line: False

Hello, the source for this data is paper PMC10397247, in case you need it.
